system: 926638-142-R-J1-PDC complex spheroid viability; test: Anticancer human tumor 926638-142-R-J1-PDC patient-derived endometrial carcinoma cell line growth inhibition [POLQ]; details: second compound 3.16 µM; first compound 10 µM; active = viability on the fitted dose curve at most 10% of control; inactive = the rest
The categories you may choose from are active, inactive

The following compounds have reported results that may help.
[[record]]
compound = "C#Cc1c(F)ccc2cc(O)cc(-c3ncc4c(N5CC6CCC(C5)N6)nc(OCC56CCCN5CC(F)C6)nc4c3F)c12 (stereo not given) + Cc1cccc(N(C)C(=O)C2C(O)CCN2c2nc(C)cc(C(F)(F)F)c2C#N)c1"
experimental_system = "926638-142-R-J1-PDC complex spheroid viability"
class_label = "inactive"

[[record]]
compound = "CC(C)n1c(=O)n(C)c2cnc3cc(F)c(-c4ccc(OCCCN5CCCCC5)nc4)cc3c21 + COC1C(OC(N)=O)C(O)C(Oc2ccc3c(O)c(NC(=O)c4ccc(O)c(CC=C(C)C)c4)c(=O)oc3c2C)OC1(C)C"
experimental_system = "926638-142-R-J1-PDC complex spheroid viability"
class_label = "inactive"

[[record]]
compound = "C=CC(=O)N1CCN(c2nc(=O)n(-c3c(C)ccnc3C(C)C)c3nc(-c4c(O)cccc4F)c(F)cc23)C(C)C1 (stereo not given) + COC1C(OC(N)=O)C(O)C(Oc2ccc3c(O)c(NC(=O)c4ccc(O)c(CC=C(C)C)c4)c(=O)oc3c2C)OC1(C)C"
experimental_system = "926638-142-R-J1-PDC complex spheroid viability"
class_label = "inactive"

[[record]]
compound = "CC1COCCN1c1cc(C2(O)CC3CCC(C2)O3)c2cnn(-c3ccn[nH]3)c2n1 (stereo not given) + Nc1ccc(C#CCN(C(=O)Cc2ncc(C(F)(F)F)cc2C(F)(F)F)c2ccc(F)cc2)nn1"
experimental_system = "926638-142-R-J1-PDC complex spheroid viability"
class_label = "active"

[[record]]
compound = "COc1cc(C2c3cc4c(cc3C(OC3OC5COC(C)OC5C(O)C3O)C3COC(=O)C23)OCO4)cc(OC)c1O (stereo not given) + COC1C(OC(N)=O)C(O)C(Oc2ccc3c(O)c(NC(=O)c4ccc(O)c(CC=C(C)C)c4)c(=O)oc3c2C)OC1(C)C"
experimental_system = "926638-142-R-J1-PDC complex spheroid viability"
class_label = "inactive"

[[record]]
compound = "COc1cc(C2c3cc4c(cc3C(OC3OC5COC(C)OC5C(O)C3O)C3COC(=O)C23)OCO4)cc(OC)c1O (stereo not given) + Nc1ccc(C#CCN(C(=O)Cc2ncc(C(F)(F)F)cc2C(F)(F)F)c2ccc(F)cc2)nn1"
experimental_system = "926638-142-R-J1-PDC complex spheroid viability"
class_label = "inactive"

[[record]]
compound = "C#Cc1c(F)ccc2cc(O)cc(-c3ncc4c(N5CC6CCC(C5)N6)nc(OCC56CCCN5CC(F)C6)nc4c3F)c12 (stereo not given) + Nc1ccc(C#CCN(C(=O)Cc2ncc(C(F)(F)F)cc2C(F)(F)F)c2ccc(F)cc2)nn1"
experimental_system = "926638-142-R-J1-PDC complex spheroid viability"
class_label = "inactive"

[[record]]
compound = "O=C(c1cc(Cc2n[nH]c(=O)c3ccccc23)ccc1F)N1CCN(C(=O)C2CC2)CC1 + Nc1ccc(C#CCN(C(=O)Cc2ncc(C(F)(F)F)cc2C(F)(F)F)c2ccc(F)cc2)nn1"
experimental_system = "926638-142-R-J1-PDC complex spheroid viability"
class_label = "inactive"


Qu. Per the assay record, what outcome was assigned to O=c1[nH]cc(F)c(=O)[nH]1 + Nc1ccc(C#CCN(C(=O)Cc2ncc(C(F)(F)F)cc2C(F)(F)F)c2ccc(F)cc2)nn1 ?
Ans. inactive

Qu. Per the assay record, what outcome was assigned to COc1ccc([C@@H](O)c2cc(-c3ncnc4cc(N5CCOCC5)ccc34)c(F)cc2Cl)nn1 + Cc1cccc(N(C)C(=O)C2C(O)CCN2c2nc(C)cc(C(F)(F)F)c2C#N)c1 ?
Ans. active

###

test system: 926638-142-R-J1-PDC complex spheroid viability; experiment: Anticancer human tumor 926638-142-R-J1-PDC cell line growth inhibition [POLQ]; conditions: second compound 3.16 µM; first compound 0.0316 µM; hits give low values;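 note: spheroids exposed to drugs for one week before readout; percent viability relative to DMSO vehicle control wells set as 100%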
Experimental Readout: viability, T/C

[[record]]
compound = "CCCS(=O)(=O)Nc1ccc(F)c(C(=O)c2c[nH]c3ncc(-c4ccc(Cl)cc4)cc23)c1F + Nc1ccc(C#CCN(C(=O)Cc2ncc(C(F)(F)F)cc2C(F)(F)F)c2ccc(F)cc2)nn1"
observed_measurement = "89.8%"

[[record]]
compound = "CC(C)n1c(=O)n(C)c2cnc3cc(F)c(-c4ccc(OCCCN5CCCCC5)nc4)cc3c21 + Nc1ccc(C#CCN(C(=O)Cc2ncc(C(F)(F)F)cc2C(F)(F)F)c2ccc(F)cc2)nn1"
observed_measurement = "93.5%"

[[record]]
compound = "Nc1ccn(C2OC(CO)C(O)C2(F)F)c(=O)n1 (stereo unspecified) + Cc1cccc(N(C)C(=O)C2C(O)CCN2c2nc(C)cc(C(F)(F)F)c2C#N)c1"
observed_measurement = "89.4%"


Qu. Query viability, T/C on 926638-142-R-J1-PDC complex spheroid viability for Cn1ncnc1[C@H]1c2n[nH]c(=O)c3cc(F)cc(c23)N[C@@H]1c1ccc(F)cc1 + COC1C(OC(N)=O)C(O)C(Oc2ccc3c(O)c(NC(=O)c4ccc(O)c(CC=C(C)C)c4)c(=O)oc3c2C)OC1(C)C
Ans. 78.5%

Qu. Query viability, T/C on 926638-142-R-J1-PDC complex spheroid viability for O=C(Nc1ccc(O)c(NS(=O)(=O)c2ccc(F)cc2)c1)c1ccc(-c2ccccc2)cc1 + Nc1ccc(C#CCN(C(=O)Cc2ncc(C(F)(F)F)cc2C(F)(F)F)c2ccc(F)cc2)nn1
Ans. 100%

Qu. Query viability, T/C on 926638-142-R-J1-PDC complex spheroid viability for CCc1cc2c(N3CCc4c(cc(Cn5ccnc5)cc4-c4cn(C)nc4C(F)(F)F)C3=O)cc(C)nc2c(OC)n1 + Cc1cccc(N(C)C(=O)C2C(O)CCN2c2nc(C)cc(C(F)(F)F)c2C#N)c1
Ans. 91.9%

Qu. Query viability, T/C on 926638-142-R-J1-PDC complex spheroid viability for C=CCn1c(=O)c2cnc(Nc3ccc(N4CCN(C)CC4)cc3)nc2n1-c1cccc(C(C)(C)O)n1 + Cc1cccc(N(C)C(=O)C2C(O)CCN2c2nc(C)cc(C(F)(F)F)c2C#N)c1
Ans. 81.2%

###

Measured viability, T/C accompanies every entry in the list below.
Tested on: 926638-142-R-J1-PDC complex spheroid viability
Test: Anticancer human tumor 926638-142-R-J1-PDC cell line growth inhibition [POLQ];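 note: spheroids exposed to drugs for one week before readout; percent viability relative to DMSO vehicle control wells set as 100%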
Settings: second compound 10 µM; first compound 0.01 µM; hits give low values
Description: Multicellular complex tumor spheroid response to Polymerase (POL) inhibitors (novobiocin, ART-558, RP6685) in combination with a variety of drugs and investigational agents in selected tumor cell lines The POL inhibitors (novobiocin, ART-558, and RP6685) were evaluated both individually and in combination with standard of care and investigational anticancer small molecules within a complex spheroid model of solid tumors. . […]
Return type: number; implicit unit %.

Solved entries:
[[record]]
molecule = "CCc1c2c(nc3ccc(O)cc13)-c1cc3c(c(=O)n1C2)COC(=O)[C@]3(O)CC + Cc1cccc(N(C)C(=O)C2C(O)CCN2c2nc(C)cc(C(F)(F)F)c2C#N)c1"
unit_abbreviation = "%"
observed_measurement = 50.5

[[record]]
molecule = "COc1cccc(OCCCN)c1-c1cc(Nc2cnc(C#N)cn2)n[nH]1 + COC1C(OC(N)=O)C(O)C(Oc2ccc3c(O)c(NC(=O)c4ccc(O)c(CC=C(C)C)c4)c(=O)oc3c2C)OC1(C)C"
unit_abbreviation = "%"
observed_measurement = 80.8

[[record]]
molecule = "CC[C@@]1(O)C(=O)OCc2c1cc1n(c2=O)Cc2cc3c(CN(C)C)c(O)ccc3nc2-1 + Cc1cccc(N(C)C(=O)C2C(O)CCN2c2nc(C)cc(C(F)(F)F)c2C#N)c1"
unit_abbreviation = "%"
observed_measurement = 68


Qu. Which viability, T/C is reported for this molecule? CCc1c2c(nc3ccc(O)cc13)-c1cc3c(c(=O)n1C2)COC(=O)[C@]3(O)CC + Nc1ccc(C#CCN(C(=O)Cc2ncc(C(F)(F)F)cc2C(F)(F)F)c2ccc(F)cc2)nn1
Ans. 47.4

###

Measured viability, T/C accompanies every entry in the list below.
system: 926638-142-R-J1-PDC complex spheroid viability; experiment: Anticancer human tumor 926638-142-R-J1-PDC cell line growth inhibition [POLQ]; conditions: second compound 3.16 µM; first compound 0.0316 µM; hits give low values;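 note: spheroids exposed to drugs for one week before readout; percent viability relative to DMSO vehicle control wells set as 100%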
Return type: number; implicit unit %.

Solved entries:
[[record]]
compound = "C#Cc1c(F)ccc2cc(O)cc(-c3ncc4c(N5CC6CCC(C5)N6)nc(OCC56CCCN5CC(F)C6)nc4c3F)c12 (stereo not given) + Cc1cccc(N(C)C(=O)C2C(O)CCN2c2nc(C)cc(C(F)(F)F)c2C#N)c1"
unit_abbreviation = "%"
observed_measurement = 81.1

[[record]]
compound = "CCc1c2c(nc3ccc(O)cc13)-c1cc3c(c(=O)n1C2)COC(=O)[C@]3(O)CC + COC1C(OC(N)=O)C(O)C(Oc2ccc3c(O)c(NC(=O)c4ccc(O)c(CC=C(C)C)c4)c(=O)oc3c2C)OC1(C)C"
unit_abbreviation = "%"
observed_measurement = 40.5

[[record]]
compound = "C=CC(=O)N1CCN(c2nc(=O)n(-c3c(C)ccnc3C(C)C)c3nc(-c4c(O)cccc4F)c(F)cc23)C(C)C1 (stereo not given) + Nc1ccc(C#CCN(C(=O)Cc2ncc(C(F)(F)F)cc2C(F)(F)F)c2ccc(F)cc2)nn1"
unit_abbreviation = "%"
observed_measurement = 93

[[record]]
compound = "Cn1ncnc1[C@H]1c2n[nH]c(=O)c3cc(F)cc(c23)N[C@@H]1c1ccc(F)cc1 + Nc1ccc(C#CCN(C(=O)Cc2ncc(C(F)(F)F)cc2C(F)(F)F)c2ccc(F)cc2)nn1"
unit_abbreviation = "%"
observed_measurement = 82.9


# ---- query compound ----
Qu. Which viability, T/C is reported for this compound? COc1cccc2c1C(=O)c1c(O)c3c(c(O)c1C2=O)CC(O)(C(=O)CO)CC3OC1CC(N)C(O)C(C)O1 (stereo not given) + COC1C(OC(N)=O)C(O)C(Oc2ccc3c(O)c(NC(=O)c4ccc(O)c(CC=C(C)C)c4)c(=O)oc3c2C)OC1(C)C
Ans. 74.3
